Test system: MS2 coat protein
method_description: apparent KD of MS2 coat protein, switch OFF state (with FMN for OFF switches, without FMN for ON switches); designed switch direction (-1 OFF switch, 1 ON switch): -1; higher = weaker reporter binding
condition_description: FMN input: 0 or 200 uM; Eterna round: R93 (includes R88 designs)
apparent KD of MS2 coat protein listing for selected sequences.

record_sequence: AACUGACAUGAGGAUCACCCAUGUCAGGAUAUGACAUCGAAAAAAAAAAAAAUCGUUGUCAGAAGGGACAUGAA [Design 77: Sub-opt SB]
target_desc: MS2 coat protein
apparent KD of MS2 coat protein / nM: 13.1

record_sequence: AACAGGACAGGAUAUACAUGAGGAUCACCCAUGUGAAGAUUAAGAAGAAACCCACAAAGUAGAAGGGUCCUGGA [Ruby 93]
target_desc: MS2 coat protein
apparent KD of MS2 coat protein / nM: 51

record_sequence: AGUAUGCGAGGAUAUACAUGAGGAUCACCCAUGUGAGAGAUAAGAGUGAGAAAGACAAGUAGAAGGCGCGUACA [JL Lego Mod 25]
target_desc: MS2 coat protein
apparent KD of MS2 coat protein / nM: 71.7

record_sequence: AAGAAUGAAGGAUAUACAUGAGGAUCACCCAUGUAAGAGAAAGAGGGAAAAGAGAAAAGUAGAAGGUCAAAGAA [Ruby 72]
target_desc: MS2 coat protein
apparent KD of MS2 coat protein / nM: 33.7
